Test system: Plasmodium falciparum
Assay: microbe, parasite or virus in culture
Conditions: Dd2, 72 h
Description: Antiplasmodial activity against chloroquine-resistant Plasmodium falciparum Dd2 infected in erythrocytes assessed as parasite growth inhibition after 72 hrs by SYBR green 1 dye-based fluorometric analysis
Value Kind: IC50 (µM)
Please respond with the number in µM and leave the unit unwritten.

Some molecules with known IC50 results, for comparison:
CCCCNC(=O)C1=C(Nc2ccc(C)c(C)c2)SCC1=O ... 2.78
CCOC(=O)C1=C(Nc2ccc3ccccc3c2)OCC1=O ... 0.018
COC(=O)C1=C(Nc2ccc(C)c(C)c2)SCC1=O ... 1.27

Per the records, this molecule ( CCOC(=O)C1=C(Nc2ccc3c(c2)c2ccccc2n3CC)SCC1=O ) has IC50 equal to 1.51

For this molecule ( O=C(O)C1=C(Nc2ccc3ccccc3c2)SCC1=O ), measured IC50 is 1.05
